Molecular target: human α1G T-type channels (Homo sapiens, UniProt O43497)
Sequence (O43497 whole entry): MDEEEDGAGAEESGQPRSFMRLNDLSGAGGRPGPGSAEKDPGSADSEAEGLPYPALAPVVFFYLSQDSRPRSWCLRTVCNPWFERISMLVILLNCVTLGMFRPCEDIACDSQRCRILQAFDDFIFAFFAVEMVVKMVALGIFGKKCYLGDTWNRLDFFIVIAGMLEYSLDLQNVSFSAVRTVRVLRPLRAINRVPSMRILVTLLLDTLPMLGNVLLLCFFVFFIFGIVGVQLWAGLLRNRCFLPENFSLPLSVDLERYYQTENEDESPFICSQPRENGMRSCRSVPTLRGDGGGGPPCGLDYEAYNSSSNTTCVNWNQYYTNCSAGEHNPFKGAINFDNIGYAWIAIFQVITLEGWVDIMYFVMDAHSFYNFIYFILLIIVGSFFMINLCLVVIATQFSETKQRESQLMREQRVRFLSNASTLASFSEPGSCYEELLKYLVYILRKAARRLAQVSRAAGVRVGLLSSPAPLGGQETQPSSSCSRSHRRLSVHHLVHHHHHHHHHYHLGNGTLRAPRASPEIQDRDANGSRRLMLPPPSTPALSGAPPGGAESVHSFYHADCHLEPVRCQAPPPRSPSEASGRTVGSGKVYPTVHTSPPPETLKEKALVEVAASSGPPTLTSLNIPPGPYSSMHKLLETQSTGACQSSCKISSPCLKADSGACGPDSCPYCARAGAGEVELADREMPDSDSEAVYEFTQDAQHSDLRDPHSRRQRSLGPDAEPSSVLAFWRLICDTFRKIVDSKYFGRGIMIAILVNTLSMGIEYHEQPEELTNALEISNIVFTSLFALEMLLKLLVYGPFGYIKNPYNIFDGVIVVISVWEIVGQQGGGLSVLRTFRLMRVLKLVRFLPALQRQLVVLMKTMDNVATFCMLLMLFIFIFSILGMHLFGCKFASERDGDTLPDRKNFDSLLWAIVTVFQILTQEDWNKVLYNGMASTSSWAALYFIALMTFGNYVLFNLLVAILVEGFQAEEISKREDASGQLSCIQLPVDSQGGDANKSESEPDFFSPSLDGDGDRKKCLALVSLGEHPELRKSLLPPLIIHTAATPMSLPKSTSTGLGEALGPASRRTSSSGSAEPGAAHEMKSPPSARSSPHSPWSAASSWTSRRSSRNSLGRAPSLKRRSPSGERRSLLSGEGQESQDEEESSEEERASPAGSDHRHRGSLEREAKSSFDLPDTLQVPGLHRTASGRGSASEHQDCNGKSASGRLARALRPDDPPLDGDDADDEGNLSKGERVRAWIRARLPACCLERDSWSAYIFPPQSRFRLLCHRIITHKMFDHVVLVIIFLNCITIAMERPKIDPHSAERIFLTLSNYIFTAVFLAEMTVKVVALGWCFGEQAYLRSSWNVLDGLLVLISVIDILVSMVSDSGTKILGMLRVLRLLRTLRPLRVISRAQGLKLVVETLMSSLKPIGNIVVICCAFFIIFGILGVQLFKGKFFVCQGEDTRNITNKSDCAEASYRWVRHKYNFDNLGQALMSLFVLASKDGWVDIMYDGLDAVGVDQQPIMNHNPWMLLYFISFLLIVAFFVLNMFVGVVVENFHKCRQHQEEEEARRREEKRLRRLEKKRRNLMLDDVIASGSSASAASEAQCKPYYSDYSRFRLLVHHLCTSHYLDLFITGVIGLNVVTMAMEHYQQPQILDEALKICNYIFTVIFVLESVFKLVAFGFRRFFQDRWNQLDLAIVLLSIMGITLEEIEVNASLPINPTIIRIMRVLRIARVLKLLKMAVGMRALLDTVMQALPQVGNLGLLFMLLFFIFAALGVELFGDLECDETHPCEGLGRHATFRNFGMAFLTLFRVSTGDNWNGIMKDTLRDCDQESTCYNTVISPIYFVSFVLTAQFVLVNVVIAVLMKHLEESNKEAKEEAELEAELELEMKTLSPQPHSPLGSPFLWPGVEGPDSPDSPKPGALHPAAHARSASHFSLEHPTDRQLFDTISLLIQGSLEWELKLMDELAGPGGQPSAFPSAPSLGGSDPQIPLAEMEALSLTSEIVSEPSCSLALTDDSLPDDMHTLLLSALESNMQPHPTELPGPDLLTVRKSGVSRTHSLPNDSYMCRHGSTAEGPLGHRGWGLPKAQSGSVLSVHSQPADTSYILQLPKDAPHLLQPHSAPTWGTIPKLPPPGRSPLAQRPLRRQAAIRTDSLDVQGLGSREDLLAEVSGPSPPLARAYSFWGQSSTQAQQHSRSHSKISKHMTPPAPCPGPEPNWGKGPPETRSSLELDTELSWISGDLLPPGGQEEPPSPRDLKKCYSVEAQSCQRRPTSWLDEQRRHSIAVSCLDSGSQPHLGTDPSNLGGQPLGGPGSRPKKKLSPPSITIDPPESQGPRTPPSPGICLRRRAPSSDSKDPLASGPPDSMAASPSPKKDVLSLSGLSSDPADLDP
Test: T-type calcium channel block, whole cell patch clamp, α1G
Settings: HEK cells stably expressing human α1G; mainly non-inactivated protocol; values above 10,000 nM represented as 10000
Outcome measure: IC50 (µM)

Consider the worked cases shown below.
Molecule	Unit abbreviation	IC50
CC(C)S(=O)(=O)c1cc(C(F)(F)F)cnc1C(=O)N[C@H]1CC[C@@](F)(S(=O)(=O)c2cccc(C(F)(F)F)c2)CC1 [Compound 281]	µM	8.53
CC(C)(CNC(=O)c1ccc(Oc2ccc(F)cc2)cc1)S(=O)(=O)c1cccc(C(F)(F)F)c1 [Compound 521]	µM	0.47
CCN(CC)C(=O)CN[C@H]1CC[C@H](CS(=O)(=O)c2cccc(C(F)(F)F)c2)CC1 [Compound 116]	µM	8.32

(P) CS(=O)(=O)c1cc(C(F)(F)F)ccc1C(=O)N[C@H]1CC[C@@](F)(S(=O)(=O)c2cc(F)cc(C(F)(F)F)c2)CC1 [Compound 330]
(Q) CS(=O)(=O)c1cc(C(F)(F)F)ccc1C(=O)N[C@H]1CC[C@@](F)(S(=O)(=O)c2cccc(OC(F)(F)F)c2)CC1 [Compound 254]
(R) CC1(NC(=O)c2ccc(C(F)(F)F)nc2S(C)(=O)=O)CCC(S(=O)(=O)c2cccc(C(F)(F)F)c2)CC1 (centres unmarked) [Compound 316]
(S) O=C(N[C@H]1CC[C@@](F)(S(=O)(=O)c2cccc(C(F)(F)F)c2)CC1)c1ccc(OCC(F)(F)F)nc1 [Compound 249]
(T) CC(C)(C(=O)Nc1ccc(Oc2ccccc2)cc1)S(=O)(=O)c1cccc(C(F)(F)F)c1 [Compound 487]
Your job: order these 5 records by IC50, ascending. The labels, placed in the requested order, form the answer.
T, Q, S, R, P
